tested on: human fibroblast cell lines; assay: Cytotoxicity, Hoechst test, human fibroblasts; settings: read-out: IC50 Fibroblast; human fibroblasts, 48 hours incubation, Hoechst test
endpoint.label: pIC50
Answers are plain numbers, as −log10 of the molar value.

Query: Consider the compound CN(C)CCNC(=O)c1cccc2cc3ccccc3nc12 [DACA, reference compound] and give its measured pIC50.
Response: 5.15

----------
tested on: grafted B16 F0 murine melanoma tumour; assay: Biodistribution of the ^125I-labelled molecules in the melanoma-bearing mouse (autoradiography of whole-body sections); conditions: 1 H after i.v. administration, ^125I-labelled compound
Structures can show the parent of a compound that is named as a salt.
endpoint.label: Concentration of radioactivity, uvea (pigmented tissues of the eye), Mean (% ID/g)
One number for each entry, in % ID/g.

Batch lookup, Concentration of radioactivity, uvea (pigmented tissues of the eye), Mean per entry.
1. CCN(CC)CCNC(=O)c1ccc2cc(I)ccc2n1.Cl.Cl
2. CCN(CC)CCNC(=O)c1cc2c(I)cccc2s1.Cl
3. CCN(CC)CCNC(=O)c1ccc(I)nc1 [compound 7, dihydrochloride]
4. CCN(CC)CCNC(=O)c1nc2ccc(I)cc2[nH]1.Cl.Cl

Response:
1. 32.71
2. 16.09
3. 16.66
4. 12.87

Give Concentration of radioactivity, uvea (pigmented tissues of the eye), Mean for each listed item.
1. CCN(CC)CCNC(=O)c1cc2cc(I)ccc2[nH]1 [compound 10, hydrochloride]
2. CCN(CC)CCNC(=O)c1ccc2cc(I)ccc2c1 [compound 3, hydrochloride]

Response:
11.70
13.21

Query: # value lookup — system grafted B16 F0 murine melanoma tumour, readout Concentration of radioactivity, uvea (pigmented tissues of the eye), Mean, item CCN(CC)CCNC(=O)c1nc2ccccn2c1I [compound 16, dihydrochloride]
Response: 28.30

----------
test system: grafted B16 F0 murine melanoma tumour; experiment: Biodistribution of the ^125I-labelled molecules in the melanoma-bearing mouse (autoradiography of whole-body sections); conditions: B 16 tumour; 24 H
Structures can show the parent of a compound that is named as a salt.
So basically, if Biodistribution, Mean, B 16 comes in under 8 it's Condition met, and if it's 8 or more it's Condition not met.

Here are 5 compounds together with their reported answers.
CCN(CC)CCNC(=O)c1cccc2cc3cc(I)ccc3nc12 [compound 111, dihydrochloride]; Condition met
CCN(CC)CCNC(=O)c1cc2c(I)cccc2cn1 [compound 39, dihydrochloride]; Condition met
CCN(CC)CCNC(=O)c1c[nH]c2ccc(I)cc2c1=O [compound 35, dihydrochloride]; Condition met
CCCN(CCC)CCCCNC(=O)c1ccc2cc(I)ccc2n1 [compound 49, dihydrochloride]; Condition not met
CCN(CC)CCNC(=O)c1cnc2cc(I)ccc2n1.Cl.Cl [compound 46]; Condition not met

Query: Hi there! Is Biodistribution, Mean, B 16 for CCN(CC)CCNC(=O)c1ccc2cncc(I)c2n1.Cl.Cl [compound 142] below 8, do you know?
Response: Condition not met

----------
tested on: grafted B16 F0 murine melanoma tumour; assay: Biodistribution of the ^125I-labelled molecules in the melanoma-bearing mouse (autoradiography of whole-body sections); details: uvea; 24 H
Counter-ions that a name gives are not always drawn.
Values of Biodistribution, Mean, uvea strictly less than 10 map to Fulfilled, and values of at least 10 map to Not fulfilled.

Query: Is the reported Biodistribution, Mean, uvea for CCN(CC)CCNC(=O)c1c[nH]c2ccc(I)cc2c1=O [compound 35, dihydrochloride] strictly below 10?
Response: Fulfilled

Query: Here's an entry: CCCN(CCC)CCCCNC(=O)c1ccc2cc(I)ccc2n1 [compound 49, dihydrochloride] . Is its Biodistribution, Mean, uvea below 10?
Response: Not fulfilled

Query: Does this compound meet the criterion Biodistribution, Mean, uvea < 10? CCN(CC)CCNC(=O)c1cc2c(I)cccc2cn1 [compound 39, dihydrochloride]
Response: Not fulfilled

Query: Is it true that Biodistribution, Mean, uvea reported for CCN(CC)CCNC(=O)c1cnc2cc(I)ccc2n1.Cl.Cl is less than 10?
Response: Not fulfilled

Query: Problem: For the compound CCN(CC)CCNC(=O)c1cccc2cc3cc(I)ccc3nc12 [compound 111, dihydrochloride] , is Biodistribution, Mean, uvea under 10?
Response: Fulfilled
